# system-tested: feline FcRn complex (FcRn-α subunit and β-microglobulin) (feline)
# assay-text: SPR (Biacore), FcRn on SA chip, pH 7.4
recorded-metric: Kd (nM)
Please state the figure in nM; there is no need to write the unit.

# example entries with known answers
feline IgG1a mutant ID No. 287: S252Y, S428Y, D312P, L314K, S434Y (antibody, part only; not given: Variable domains, not shown: another chain or arm of the molecule) constant: ASTTAPSVFPLAPSCGTTSGATVALACLVLGYFPEPVTVSWNSGALTSGVHTFPAVLQASGLYSLSSMVTVPSSRWLSDTFTCNVAHPPSNTKVDKTVRKTDHPPGPKPCDCPKCPPPEMLGGPSIFIFPPKPKDTLYISRTPEVTCLVVDLGPDDSDVQITWFVDNTQVYTAKTSPREEQFNSTYRVVSVLPILHQPWKKGKEFKCKVNSKSLPSPIERTISKAKGQPHEPQVYVLPPAQEELSRNKVSVTCLIKSFHPPDIAVEWEITGQPEPENNYRTTPPQLDSDGTYFVYSKLSVDRSHWQRGNTYTCSVYHEALHYHHTQKSLTQSPGK: 127
feline IgG1a mutant ID No. 374: S252Y, S434R, Q311Y (antibody, part only; not given: Variable domains, not shown: another chain or arm of the molecule) constant: ASTTAPSVFPLAPSCGTTSGATVALACLVLGYFPEPVTVSWNSGALTSGVHTFPAVLQASGLYSLSSMVTVPSSRWLSDTFTCNVAHPPSNTKVDKTVRKTDHPPGPKPCDCPKCPPPEMLGGPSIFIFPPKPKDTLYISRTPEVTCLVVDLGPDDSDVQITWFVDNTQVYTAKTSPREEQFNSTYRVVSVLPILHYDWLKGKEFKCKVNSKSLPSPIERTISKAKGQPHEPQVYVLPPAQEELSRNKVSVTCLIKSFHPPDIAVEWEITGQPEPENNYRTTPPQLDSDGTYFVYSKLSVDRSHWQRGNTYTCSVSHEALHRHHTQKSLTQSPGK: 30.3

Kd for feline IgG1a mutant ID No. 297: S428Y, D312P, L314K, S434Y (antibody, part only; not given: Variable domains, not shown: another chain or arm of the molecule) constant: ASTTAPSVFPLAPSCGTTSGATVALACLVLGYFPEPVTVSWNSGALTSGVHTFPAVLQASGLYSLSSMVTVPSSRWLSDTFTCNVAHPPSNTKVDKTVRKTDHPPGPKPCDCPKCPPPEMLGGPSIFIFPPKPKDTLSISRTPEVTCLVVDLGPDDSDVQITWFVDNTQVYTAKTSPREEQFNSTYRVVSVLPILHQPWKKGKEFKCKVNSKSLPSPIERTISKAKGQPHEPQVYVLPPAQEELSRNKVSVTCLIKSFHPPDIAVEWEITGQPEPENNYRTTPPQLDSDGTYFVYSKLSVDRSHWQRGNTYTCSVYHEALHYHHTQKSLTQSPGK is 82.9

// sample feline IgG1a mutant ID No. 303: A431K, S434Y (antibody, part only; not given: variable domains and light chain, not shown: another chain or arm of the molecule) constant: ASTTAPSVFPLAPSCGTTSGATVALACLVLGYFPEPVTVSWNSGALTSGVHTFPAVLQASGLYSLSSMVTVPSSRWLSDTFTCNVAHPPSNTKVDKTVRKTDHPPGPKPCDCPKCPPPEMLGGPSIFIFPPKPKDTLSISRTPEVTCLVVDLGPDDSDVQITWFVDNTQVYTAKTSPREEQFNSTYRVVSVLPILHQDWLKGKEFKCKVNSKSLPSPIERTISKAKGQPHEPQVYVLPPAQEELSRNKVSVTCLIKSFHPPDIAVEWEITGQPEPENNYRTTPPQLDSDGTYFVYSKLSVDRSHWQRGNTYTCSVSHEKLHYHHTQKSLTQSPGK , its Kd was 26.3

Short answer for feline IgG1a mutant ID No. 369: S252Y, S434R, P247L (antibody, part only; not given: Variable domains, not shown: another chain or arm of the molecule) constant: ASTTAPSVFPLAPSCGTTSGATVALACLVLGYFPEPVTVSWNSGALTSGVHTFPAVLQASGLYSLSSMVTVPSSRWLSDTFTCNVAHPPSNTKVDKTVRKTDHPPGPKPCDCPKCPPPEMLGGPSIFIFPPKLKDTLYISRTPEVTCLVVDLGPDDSDVQITWFVDNTQVYTAKTSPREEQFNSTYRVVSVLPILHQDWLKGKEFKCKVNSKSLPSPIERTISKAKGQPHEPQVYVLPPAQEELSRNKVSVTCLIKSFHPPDIAVEWEITGQPEPENNYRTTPPQLDSDGTYFVYSKLSVDRSHWQRGNTYTCSVSHEALHRHHTQKSLTQSPGK : Kd was 26.5

Note to self: Kd recorded for feline IgG1a mutant ID No. 317: S428M, A431K, S434P (antibody, part only; not given: variable domains and light chain, not shown: another chain or arm of the molecule) constant: ASTTAPSVFPLAPSCGTTSGATVALACLVLGYFPEPVTVSWNSGALTSGVHTFPAVLQASGLYSLSSMVTVPSSRWLSDTFTCNVAHPPSNTKVDKTVRKTDHPPGPKPCDCPKCPPPEMLGGPSIFIFPPKPKDTLSISRTPEVTCLVVDLGPDDSDVQITWFVDNTQVYTAKTSPREEQFNSTYRVVSVLPILHQDWLKGKEFKCKVNSKSLPSPIERTISKAKGQPHEPQVYVLPPAQEELSRNKVSVTCLIKSFHPPDIAVEWEITGQPEPENNYRTTPPQLDSDGTYFVYSKLSVDRSHWQRGNTYTCSVMHEKLHPHHTQKSLTQSPGK was 15.6

Short answer for feline IgG1a mutant ID No. 329: S428Y, D312P, S434Y, Q311H, L314K (antibody, part only; not given: Variable domains, not shown: another chain or arm of the molecule; small tags and cut ends) constant: ASTTAPSVFPLAPSCGTTSGATVALACLVLGYFPEPVTVSWNSGALTSGVHTFPAVLQASGLYSLSSMVTVPSSRWLSDTFTCNVAHPPSNTKVDKTVRKTDHPPGPKPCDCPKCPPPEMLGGPSIFIFPPKPKDTLSISRTPEVTCLVVDLGPDDSDVQITWFVDNTQVYTAKTSPREEQFNSTYRVVSVLPILHHPWKKGKEFKCKVNSKSLPSPIERTISKAKGQPHEPQVYVLPPAQEELSRNKVSVTCLIKSFHPPDIAVEWEITGQPEPENNYRTTPPQLDSDGTYFVYSKLSVDRSHWQRGNTYTCSVYHEALHYHHTQKSLTQSPGK : Kd was 18.9

Entry under test: feline IgG1a mutant ID No. 377: S252Y, S434R, T256M (antibody, part only; not given: Variable domains, not shown: another chain or arm of the molecule) constant: ASTTAPSVFPLAPSCGTTSGATVALACLVLGYFPEPVTVSWNSGALTSGVHTFPAVLQASGLYSLSSMVTVPSSRWLSDTFTCNVAHPPSNTKVDKTVRKTDHPPGPKPCDCPKCPPPEMLGGPSIFIFPPKPKDTLYISRMPEVTCLVVDLGPDDSDVQITWFVDNTQVYTAKTSPREEQFNSTYRVVSVLPILHQDWLKGKEFKCKVNSKSLPSPIERTISKAKGQPHEPQVYVLPPAQEELSRNKVSVTCLIKSFHPPDIAVEWEITGQPEPENNYRTTPPQLDSDGTYFVYSKLSVDRSHWQRGNTYTCSVSHEALHRHHTQKSLTQSPGK . Its Kd was 25.6
